The measurements presented in this section are drawn from PubChem BioAssay (NCI).

Would you kindly list GI50 for each of these molecules?
Test system: 786-0 renal
Assay: NCI tumour cell line growth inhibition, 48 h

Example entries begin here.
INSERT INTO assay_data (molecule, study_target, value_reported) VALUES
  ('O=C(CCCCCCSc1nc(-c2ccc(Cl)cc2)cc(-c2ccc(Cl)cc2)n1)NO', '786-0 renal', '1.59 µM'),
  ('N[C@@H]1CCCN(c2c(/C=C3\SC(=O)NC3=O)cccc2-c2ccccc2)C1', '786-0 renal', '15.4 µM'),
  ('C/C(Cc1ccc(Cl)cc1)=C(/c1ccc(Cl)cc1)c1ccc(OCCN(C)C)cc1', '786-0 renal', '4.55 µM'),
  ('CCCSC1=NC2C(N(CC)C(=O)N2CC)N1/N=C/C=C/c1ccccc1[N+](=O)[O-] (stereo not given)', '786-0 renal', '4.61 µM');

Next, consider the following molecule.
Request: Report GI50 for Nc1nnc(Cn2c(-c3ccccc3)nc3ccc(Br)cc3c2=O)s1 tested on 786-0 renal.
Result: 58.7 µM

* * *

Tested on: UO-31 renal
Assay: NCI tumour cell line growth inhibition, 48 h
Measure: TGI (µM)
One number for each entry, in µM.

Example entries begin here.
INSERT INTO measurements (molecular_string, measure, u, value_reported) VALUES
  ('COc1ccc2c(c1)[n+](=O)c(C(=O)/C=C/c1cc(OC)c(OC)c(OC)c1)c(C)n2[O-]', 'TGI', 'µM', 78.6),
  ('N[C@@H]1CCCN(c2c(/C=C3\SC(=O)NC3=O)cccc2-c2ccccc2)C1', 'TGI', 'µM', 27.3),
  ('Cc1ccc2[nH]c3c(ncc4[nH]c5ccccc5c43)c2c1', 'TGI', 'µM', 30.3),
  ('CCCCC#CC#Cc1cccc(=O)o1', 'TGI', 'µM', 46.2);

Next, consider the following compound.
Request: Fill blank: measured TGI of the compound CCOC(=O)/C=C(/C(=O)OCC)n1ccc(=O)n(/C(=C/C(=O)OCC)C(=O)OCC)c1=O is ____.
Result: 28.9

* * *

System: RXF 393 renal
Assay: NCI tumour cell line growth inhibition, 48 h
Measure: TGI (µM)
Give bare numbers, in µM.

INSERT INTO assay_data (molecule, u, value_reported) VALUES
  ('C=C(C)[C@@H]1CC[C@]2(COC3CCCCO3)CC[C@]3(C)[C@H](CC[C@@H]4[C@@]5(C)C=C(C=O)C(=O)C(C)(C)[C@@H]5CC[C@]43C)[C@@H]12 (some centres not stated)', 'µM', 2.73),
  ('COC1=Nc2ccccc2S(=O)(=O)C=C1', 'µM', 8.69),
  ('COC(=O)[C@@]12OC[C@]34C([C@@H](O)C1O)[C@@]1(C)CC(=O)C(OC(=O)/C=C(/c5ccccc5)C(F)(F)F)=C(C)C1C[C@H]3OC(=O)[C@H](O)[C@H]42 (some centres not stated)', 'µM', 45.6),
  ('CC(=O)OC1CC2C(C)(C)C(=O)C=CC2(C)C2CCC3(C)C(c4ccoc4)OC(=O)C4OC43C12C (configuration not stated)', 'µM', 27.2),
  ('NC(=O)NC(=O)c1cccc(NC(=O)CBr)c1', 'µM', 1.38);

Please look at the items below and tell me TGI for each one, in order.
1. COc1ccc(-c2c(-c3cc(OC)c4c(c3)OCO4)noc2N)cc1
2. CCc1nc(Cl)nc(Cl)c1Cl
3. CC(=O)OCC1O[C@@H]([S-])C(OC(C)=O)[C@H](OC(C)=O)[C@@H]1OC(C)=O.[Au+].c1ccc(CN2[CH-]N(Cc3ccccc3)C(c3ccccc3)=C2c2ccccc2)cc1
4. O=C(/C=C/c1ccc(O)c(O)c1O)OCCc1ccccc1
5. Cc1ccc2[nH]c3c(ncc4[nH]c5ccccc5c43)c2c1
6. C=CCOC(=O)[C@@H]1C[C@@H](OC(C)(C)C)CN1C(=O)[C@@H]1[C@H]2OC(C)(C)O[C@H]2CN1C(=O)OCC1c2ccccc2-c2ccccc21
7. C#CCOc1cccc(Nc2ncnc3ccc(NC(=O)CCl)cc23)c1
8. C/C(Cc1ccc(Cl)cc1)=C(/c1ccc(Cl)cc1)c1ccc(OCCN(C)C)cc1

Result:
1: 0.0627; 2: 4.37; 3: 3.51; 4: 98.2; 5: 27.2; 6: 24.7; 7: 19; 8: 7.54

* * *

Would you kindly list GI50 for each of these compounds?
System: A549 NSCLC
Assay: NCI tumour cell line growth inhibition, 48 h

INSERT INTO results (compound, value_reported) VALUES
  ('COc1ccc(C(=O)c2cc3c(N)c(C(=O)Nc4cccc(Cl)c4C)sc3nc2C)cc1', '0.136 µM');

Please look at the items below and tell me GI50 for each one, in order.
1. COc1ccc2c(c1)[n+](=O)c(C(=O)/C=C/c1cc(OC)c(OC)c(OC)c1)c(C)n2[O-]
2. CS(=O)(=O)CCNCc1ccc(-c2ccc3ncnc(Nc4ccc(OCc5ccccc5)c(Cl)c4)c3c2)o1
3. O=[N+]([O-])c1ccc2ncccc2c1Cl
4. CCCSC1=NC2C(N(CC)C(=O)N2CC)N1/N=C/C=C/c1ccccc1[N+](=O)[O-] (centres undefined)
5. CCOC(=O)Nc1ccc(-c2nc(-c3cccc(OC)c3)c(-c3ccnc(Br)c3)[nH]2)cc1
6. Nc1nc(N)c2nc(CNc3ccc(C(=O)NC(CCCNC(=O)c4ccccc4C(=O)O)C(=O)O)cc3)cnc2n1 (centres undefined)
7. CCC1CCc2nc3sc(C(=O)Nc4ccccc4C)c(N)c3cc2C1 (centres undefined)
8. O=C(Oc1ccccc1Cl)c1ccccc1Nc1ccnc(C(F)(F)F)c1

Result:
34.9 µM
7.18 µM
3.29 µM
4.25 µM
3.07 µM
0.00379 µM
0.616 µM
1.36 µM

* * *

Test system: SNB-75 CNS
Assay: NCI tumour cell line growth inhibition, 48 h; in the data active means GI50 below about 0.43 µM; inactive means the rest
Give one outcome, nothing more. List: Y for active, N for inactive

Look over these answered cases.
INSERT INTO assay_data (molecule, group_label) VALUES
  ('O=C(c1ccccc1)c1nc2ccc(C(F)(F)F)cc2[n+]([O-])c1C(F)(F)F', 'N'),
  ('C=C1C(=O)O[C@H]2[C@H]1CC/C(COC(=O)c1ccc(C#N)cc1)=C\CC[C@@]1(C)O[C@@H]21', 'N'),
  ('CCN1C(=O)N(c2ccccc2)C2NN=c3s/c(=C4\C(=O)N(C(C)C)c5ccccc54)c(=O)n3C21 (configuration not stated)', 'Y'),
  ('Nc1nnc(Cn2c(-c3ccccc3)nc3ccc(Br)cc3c2=O)s1', 'N');

Request: Assay result, entry COc1cnc2c(c1)C(=O)c1c-2n(CCCN2CCCC2)c(=O)c2cc(F)ccc12 — outcome?
Result: Y

Request: Assay result, entry Nc1c(C(=O)Nc2ccccc2F)sc2nc3c(cc12)C(=O)CCC3 — outcome?
Result: N

Request: Assay result, entry C#Cc1cccc(Nc2nc3ccc([N+](=O)[O-])cc3nc2Nc2cccc(C#C)c2)c1 — outcome?
Result: Y

* * *

Would you kindly list TGI for each of these compounds?
Test system: HL-60(TB) leukemia
Experiment: NCI tumour cell line growth inhibition, 48 h

Example entries begin here.
INSERT INTO measurements (compound, value_reported) VALUES
  ('Cc1c(C)c2c(c(N)c1C#N)C(=O)N(CCN1CCNCC1)C2=O', '> 100 µM'),
  ('Cn1c(=S)c2[nH]c(SCCN3CCCC3)nc2n(C)c1=O', '> 100 µM'),
  ('NC(CCOCCP(=O)(O)CCOCCC(N)C(=O)O)C(=O)O (configuration not stated)', '> 100 µM'),
  ('O=C(O)C12CCCC(CCC1)C2', '> 100 µM'),
  ('CCCCCCCCCCCCN(O)C(=O)c1ccccc1', '54.8 µM'),
  ('C/C(Cc1ccc(Cl)cc1)=C(/c1ccc(Cl)cc1)c1ccc(OCCN(C)C)cc1', '10 µM');

Request: Fill blank: measured TGI of the compound Cc1ccc(O)c(C(=O)CCCC(=O)c2cc(C)ccc2O)c1 is ____.
Result: > 100 µM

* * *

System: UACC-257 melanoma
Test: NCI tumour cell line growth inhibition, 48 h
Measure: log10 TGI (log10 of the value in µM)
Kindly note that the scale is log10 and the underlying TGI is in µM.

Please look at the items below and tell me log10 TGI for each one, in order.
1. CC(C)C1OC(/C=C/c2ccccc2)OCC1(C)C (stereo not drawn)
2. COc1cc(N(CCC#N)CCC#N)ccc1/C(N=Nc1ccccc1)=N/NC(=O)c1cc(Br)ccc1O
3. O=[N+]([O-])c1ccc(Sc2c3ccccc3nc3ccccc23)nc1
4. Cc1ccc(/C=C/C(=N/NC(=O)N/N=C(/C=C/c2ccc(C)cc2)C(C)(C)CN2CCCCC2)C(C)(C)CN2CCCCC2)cc1
5. CCCCCCCCCCCCN(O)C(=O)c1ccccc1

Result:
[1.80, 1.80, 1.28, 0.49, 1.69]

Request: Fill blank: measured log10 TGI of the compound CCC[CH2][Sn]([CH2]CCC)([O]C(=O)C1CCC(=O)N1)[O]C(=O)C1CCC(=O)N1 (stereo not drawn) is ____.
Result: -0.47
